# test: Half life in Sprague-Dawley rat at 1 mg/kg, iv
# Type: ADME, organism-based
# Parameters: dose 1 mg/kg, route intravenous
# condition.parameters: in vivo
outcome.measure: half-life (h)
Supply the numeric figure in h, leaving out any unit text.

N[C@H](CNc1nnc(-c2ccc3[nH]ncc3c2)s1)Cc1ccc(C(F)(F)F)cc1: 2.5

Turning now to a further record.
Request: Entry Cc1n[nH]c2ccc(-c3nnc(NC[C@@H](N)Cc4ccc(C(F)(F)F)cc4)s3)cc12 : reported half-life = ?
Response: 4.1

----------
# tested.target: RAC-alpha serine/threonine-protein kinase (Homo sapiens, UniProt P31749)
# Sequence (P31749 whole entry): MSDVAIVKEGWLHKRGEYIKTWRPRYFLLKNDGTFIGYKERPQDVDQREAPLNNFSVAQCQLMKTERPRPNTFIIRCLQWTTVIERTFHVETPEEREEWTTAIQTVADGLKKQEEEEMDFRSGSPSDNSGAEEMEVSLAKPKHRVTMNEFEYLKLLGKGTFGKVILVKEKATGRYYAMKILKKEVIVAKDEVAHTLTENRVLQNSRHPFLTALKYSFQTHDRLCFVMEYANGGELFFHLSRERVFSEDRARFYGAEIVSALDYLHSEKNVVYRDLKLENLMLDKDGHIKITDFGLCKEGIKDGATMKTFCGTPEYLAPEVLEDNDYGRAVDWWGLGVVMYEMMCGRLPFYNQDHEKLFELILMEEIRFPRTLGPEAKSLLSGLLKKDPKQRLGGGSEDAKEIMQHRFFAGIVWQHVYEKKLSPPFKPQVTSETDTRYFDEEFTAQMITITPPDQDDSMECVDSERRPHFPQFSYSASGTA
# test: Inhibition of AKT1 after 10 mins by [gamma33]ATP assay
pIC50: −log10 of the molar value.
Label true when pIC50 is at or above 8; anything below gets false.

Example entries begin here.
N[C@H](CNc1nnc(-c2ccc3[nH]ncc3c2)s1)Cc1cccc(C(F)(F)F)c1: false
Cc1n[nH]c2ccc(-c3nnc(NC[C@@H](N)Cc4ccc(C(F)(F)F)cc4)s3)cc12: true
N[C@H](CNc1nnc(-c2ccc3[nH]ncc3c2)s1)Cc1ccc(F)cc1: false

Request: Say whether Cc1n[nH]c2ccc(-c3nnc(NC[C@@H](N)Cc4cccc(Cl)c4)s3)cc12 shows pIC50 of 8 or more.
Response: false

Request: Say whether N[C@H](CNc1nnc(-c2ccc3[nH]nc(C4CC4)c3c2)s1)Cc1ccc(C(F)(F)F)cc1 shows pIC50 of 8 or more.
Response: false
